- tested system: MMP-13 (Homo sapiens, UniProt P45452)
- Construct: made in house; host or cells: baculovirus / insect cells
- protocol text: In vitro MMP inhibition, Ki determination (fluorogenic substrate II)
- Format: biochemical
- conditions: value outside parentheses; read-out: MMP-13 Ki
value kind: Ki

compound | Ki
CCCCc1ccc(C2CCN(S(=O)(=O)C3(C(=O)NO)CCOCC3)CC2)nc1 [Example 307] | 0.654 nM
CCCCCC/C=C\C1CCN(S(=O)(=O)C2(C(=O)NO)CCOCC2)CC1 [Example 401] | 9.05 nM
CCCCOc1ccc(N2CCN(S(=O)(=O)C3(C(=O)NO)CCN(CC4CC4)CC3)CC2)cc1 [Example 298] | 0.702 nM
CCCCOc1ccc(N2CCN(S(=O)(=O)C3(C(=O)NO)CCN(C(=O)C4CC4)CC3)CC2)cc1 [Example 260] | 0.301 nM
O=C(NO)C1(S(=O)(=O)N2CCC(c3ccc(CCC(F)(F)C(F)(F)F)cn3)CC2)CCOCC1 [Example 340] | 0.107 nM
O=C(NO)C1(S(=O)(=O)N2CCN(c3cccc(OCCCC(F)(F)F)c3)CC2)CCOCC1 [Example 355] | 51.1 nM
CCCCOc1ccc(N2CCN(S(=O)(=O)C3(C(=O)NO)CCN(C(=O)c4cccnc4)CC3)CC2)cc1 [Example 266] | 0.308 nM
O=C(NO)C1(S(=O)(=O)N2CCN(c3ccc(-c4nn[nH]n4)cc3)CC2)CCOCC1 [Example 419] | 34 nM
O=C(NO)C1(S(=O)(=O)N2CCC(c3ccc(-c4cccc(F)c4)cn3)CC2)CCOCC1 [Example 417] | 3.84 nM
CCc1ccc(N2CCN(S(=O)(=O)C3(C(=O)NO)CCCCC3)CC2)nc1 [Example 263] | 0.262 nM

INPUT: Fill in: Ki of CCCCc1ccc(C2(O)CCN(S(=O)(=O)C3(C(=O)NO)CCOCC3)CC2)nc1 [Example 420] is ___
OUTPUT: 175 nM

INPUT: // repeat for COC(=O)c1ccc(N2CCN(S(=O)(=O)C3(C(=O)NO)CCOCC3)CC2)cc1 [Example 324] and report
OUTPUT: 3.55 nM

INPUT: // repeat for O=C(NO)C1(S(=O)(=O)N2CCN(c3ncc(-c4ccc(F)cc4F)s3)CC2)CCOCC1 [Example 359] and report
OUTPUT: 0.439 nM

INPUT: // repeat for CCCCc1ccc(C2CCN(S(=O)(=O)C3(C(=O)NO)CCN(CCOC)CC3)CC2)nc1 [Example 397] and report
OUTPUT: 0.54 nM
